- Method Description: in vivo
- Condition Parameters: male, ICR, mouse, po, 3 mg/kg, t1/2, mouse, oral gavage, Plasma
Measured Quantity: half-life (h)
Give the quantity in h, number only.

Task: Note down half-life recorded for `OC[C@H]1O[C@@H](c2ccc(Cl)c(Cc3ccc(O[C@H]4CCOC4)cc3)c2)[C@H](O)[C@@H](O)[C@@H]1O`
Result: 1.8

Task: Please report half-life for the following compound: `OC[C@H]1O[C@@H](c2ccc(F)c(Cc3cc4ccccc4s3)c2)[C@H](O)[C@@H](O)[C@@H]1O`
Result: 1.6

Task: Provide half-life value for the following compound: `Cc1ccc(-c2cc(C(F)(F)F)nn2-c2ccc(S(N)(=O)=O)cc2)cc1`
Result: 2.4

Task: Please report half-life for the following compound: `COc1ccc2c(c1)c(CC(=O)O)c(C)n2C(=O)c1ccc(Cl)cc1`
Result: 2.7

Task: Identify measured half-life corresponding to `CC#CCn1c(N2CCC[C@@H](N)C2)nc2c1c(=O)n(Cc1nc(C)c3ccccc3n1)c(=O)n2C`
Result: 2.6

meta.source: paper PMC8053501
